# Read-out: Monocyte Chemoattractant Protein-1 (MCP1), CCL2 (gene 6347)
# Protocol: BSK_SAg_MCP1: BioMAP Diversity Plus: SAg Assay for Monocyte Chemoattractant Protein-1 (MCP1) Biomarker Activity (AID 2283090)
# Study Conditions: primary human HUVEC with PBMC; actives raise or lower the signal
Calls of active or inactive are those of the source. The calls were made as follows: active = hit-call score of the fitted dose curve at least 0.9, where 1 is the maximum; inactive = score below 0.9.
API: response.call in YES = active, NO = inactive

COCCOc1cc2cc(C(=O)NC3CCN(C(C)C)CC3)n(CC(=O)Nc3ccc(Cl)cn3)c2cn1	NO
CN(C)c1ccc(N=NS(=O)(=O)O)cc1	NO
Fc1ccccc1[C@@H](F)COC1CCC(Nc2ncnc3[nH]ncc23)CC1 (stereo not given in full)	YES

# input For O=C(O)CCN(C1(C(=O)NO)CCCC1)S(=O)(=O)c1ccc(Oc2ccc(F)cc2)cc1 , which call appears in the assay record?
# output NO

# input Now try CC(O)CN(CCN(CC(C)O)CC(C)O)CC(C)O (stereo not given) .
# output NO

# input Request: O=c1n(CC2CO2)c(=O)n(CC2CO2)c(=O)n1CC1CO1 (stereo not given)
# output YES

# input And CC1=CC(=O)CC(C)(C)C1 ?
# output NO

# input Then CC(=O)OCCC(C)C ?
# output NO

###

# Read-out: Interferon-gamma inducible Protein 10 (IP10), CXCL10 (gene 3627)
# Protocol: BSK_KF3CT_IP10: BioMAP Diversity Plus: KF3CT Assay for Interferon-gamma inducible Protein 10 (IP10) Biomarker Activity (AID 2283068)
# Study Conditions: primary human keratinocytes with fibroblasts; actives raise or lower the signal
Activity calls are given as the source filed them. How the source made its calls: active means hit-call score of the fitted dose curve at least 0.9, where 1 is the maximum; inactive means score below 0.9.
Respond with a class label; see active, inactive

COC(=O)c1ccccc1O	inactive
COc1ccc(/C=C/S(=O)(=O)NC(=O)c2ccc(C)cc2Cl)cc1	active
CCCC(=O)OCC	inactive
O=C1CCCCCN1	inactive

# input # fetch the recorded call for CCNc1ccccc1 here
# output inactive

# input And CC(C)CCCCCCOC(=O)c1ccc(C(=O)OCCCCCCC(C)C)c(C(=O)OCCCCCCC(C)C)c1 ?
# output inactive

###

# Read-out: MYC, MYC (gene 4609)
# Protocol: LTEA_HepaRG_MYC: Life Technologies and Expression Analysis (LTEA) Assay for MYC using HepaRG (AID 2283518)
# Study Conditions: mRNA level, 48 h; actives raise or lower the signal
# Procedure: LTEA_HepaRG is a cell based, multiplexed-readout assay that uses HepaRG, a human liver cell line, with measurements taken at 48 hours after chemical dosing on a 96-well plate.LTEA_HepaRG_MYC is one of 102 assay component(s) measured in the LTEA HepaRG cell culture assay. It is a marker of Cell proliferation, survival, death.Data from the assay component LTEA_HepaRG_MYC was analyzed into 1 endpoint. […]
Active and inactive are the calls of the source. How the source made its calls: active means hit-call score of the fitted dose curve at least 0.9, where 1 is the maximum; inactive means score below 0.9.
Respond only with the outcome that fits, drawn from YES (active), NO (inactive)

Cn1c(=O)cc(Oc2ccc(F)cc2F)c2cnc(NCC(C)(C)O)nc21	YES
CCCCCCCCO	NO
COc1ccc2sc(C(=O)Nc3nnn[nH]3)c(OC(C)C)c2c1	YES
CCNc1ccccc1	NO
CC[C@H]1CC[C@H](NCc2cc3c(cc2OC)[C@H]2C[C@H]2C(=O)N3C)[C@H](c2ccccc2)N1	NO
CCCCCCc1ccc(O)cc1O	NO
O=C1CCCCCN1	NO
CCOCCO	NO
CCCCCCCCCCCCc1ccccc1	NO
CC(=O)OCCC(C)C	NO

# input Write down the call the test reported for this compound. Item: CN(C)c1ccc(Cc2ccc(N(C)C)cc2)cc1
# output NO

# input Now give it for CC(C)=CCCC(C)CCO (configuration not stated) too.
# output NO
